The values you see were collected from ChEMBL document CHEMBL1681676.

# SYSTEM: Matrix metalloproteinase-14 (Homo sapiens, UniProt P50281)
# ASSAY_PROTOCOL: Inhibition of recombinant human MMP14 assessed as substrate cleavage by measuring increase in fluorescence after 16 hrs
RESULT_TYPE: pIC50
Please report pIC50 as the negative decimal logarithm of the molar concentration, giving only the number.

C[C@@H](C[C@@](C)(CS(=O)(=O)N1CCN(c2ccc(F)cc2)CC1)N(O)C=O)c1ncc(F)cn1
8.12

Requested read-out pIC50, target or system Matrix metalloproteinase-14 (Homo sapiens, UniProt P50281), entry `Cc1ccc(C)c(CCC2CCN(S(=O)(=O)C[C@](C)(C[C@H](C)c3ncc(F)cn3)N(O)C=O)CC2)c1`
5.38

Requested read-out pIC50, target or system Matrix metalloproteinase-14 (Homo sapiens, UniProt P50281), entry `Cc1cc(C(F)(F)F)cnc1CCC1CCN(S(=O)(=O)C[C@](C)(C[C@H](C)c2ncc(F)cn2)N(O)C=O)CC1`
4.40

Requested read-out pIC50, target or system Matrix metalloproteinase-14 (Homo sapiens, UniProt P50281), entry `Cc1cc(Cl)ccc1CCC1CCN(S(=O)(=O)C[C@](C)(C[C@H](C)c2ncc(F)cn2)N(O)C=O)CC1`
6.44

Requested read-out pIC50, target or system Matrix metalloproteinase-14 (Homo sapiens, UniProt P50281), entry `C[C@@H](C[C@@](C)(CS(=O)(=O)N1CCC(CCc2ccc(C(F)(F)F)cc2Cl)CC1)N(O)C=O)c1ncc(F)cn1`
6.05

Requested read-out pIC50, target or system Matrix metalloproteinase-14 (Homo sapiens, UniProt P50281), entry `C[C@@H](C[C@@](C)(CS(=O)(=O)N1CCC(OCc2ccc(Cl)cc2Cl)CC1)N(O)C=O)c1ncc(F)cn1`
6.37

###

# SYSTEM: UniProtKB O75173
# Sequence (O75173 whole entry): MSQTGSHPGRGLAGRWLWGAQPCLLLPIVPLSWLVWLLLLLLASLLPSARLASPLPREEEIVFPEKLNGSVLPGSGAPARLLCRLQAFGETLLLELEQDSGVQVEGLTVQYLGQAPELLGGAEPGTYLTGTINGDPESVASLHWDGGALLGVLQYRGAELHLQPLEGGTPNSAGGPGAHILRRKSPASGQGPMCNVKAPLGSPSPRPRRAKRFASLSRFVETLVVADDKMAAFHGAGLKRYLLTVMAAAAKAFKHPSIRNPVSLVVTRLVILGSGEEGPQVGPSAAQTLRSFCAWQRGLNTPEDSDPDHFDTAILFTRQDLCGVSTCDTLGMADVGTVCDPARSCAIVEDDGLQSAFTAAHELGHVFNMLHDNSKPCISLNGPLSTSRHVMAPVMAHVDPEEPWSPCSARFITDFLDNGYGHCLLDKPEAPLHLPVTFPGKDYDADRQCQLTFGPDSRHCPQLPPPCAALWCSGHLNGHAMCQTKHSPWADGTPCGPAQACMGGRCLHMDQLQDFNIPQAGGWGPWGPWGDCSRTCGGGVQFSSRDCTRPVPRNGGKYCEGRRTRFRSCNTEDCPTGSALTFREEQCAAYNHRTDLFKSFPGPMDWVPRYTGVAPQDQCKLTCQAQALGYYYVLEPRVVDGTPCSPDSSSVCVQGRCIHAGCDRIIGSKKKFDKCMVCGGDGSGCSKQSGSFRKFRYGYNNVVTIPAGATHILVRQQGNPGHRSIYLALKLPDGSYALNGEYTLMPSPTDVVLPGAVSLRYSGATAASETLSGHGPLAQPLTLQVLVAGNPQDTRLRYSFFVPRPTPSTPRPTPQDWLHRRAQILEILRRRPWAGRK
RESULT_TYPE: IC50 (nM)
Value expressed in nM; do not type the unit.

As a guide, the following entries are already answered.
Cc1cnc(C)c(CCC2CCN(S(=O)(=O)C[C@](C)(C[C@H](C)c3ncc(F)cn3)N(O)C=O)CC2)c1
1.9
C[C@@H](C[C@@](C)(CS(=O)(=O)N1CCC(CCc2ccc(S(C)(=O)=O)cc2Cl)CC1)N(O)C=O)c1ncc(F)cn1
0.57
C[C@@H](C[C@@H](CS(=O)(=O)N1CCN(c2ccc(F)cc2)CC1)N(O)C=O)c1ncc(F)cn1
1.4

Please look up its IC50: `Cc1nsc(C)c1CCC1CCN(S(=O)(=O)C[C@](C)(C[C@H](C)c2ncc(F)cn2)N(O)C=O)CC1`
0.26

Please look up its IC50: `C[C@@H](C[C@@](C)(CS(=O)(=O)N1CCC(CCc2ccc(F)cc2C(F)(F)F)CC1)N(O)C=O)c1ncc(F)cn1`
0.52

Please look up its IC50: `C[C@@H](C[C@@H](CS(=O)(=O)N1CCC(OCc2ccc(Cl)cc2Cl)CC1)N(O)C=O)c1ncc(F)cn1`
1

Please look up its IC50: `C[C@@H](C[C@@](C)(CS(=O)(=O)N1CCC(CCc2ccc(Cl)cc2Cl)CC1)N(O)C=O)c1ncc(F)cn1`
1.1
